T/C values by entry
System: B6C3F1 mice, B16 melanoma ip, median survival T/C
Test: NCI In Vivo Anticancer Drug Screen. Data for tumor model B16 Melanoma (intraperitoneal) in B6C3F1 mice
Settings: endpoint: median survival time; dose: 100.0 mg/kg/injection; schedule: Q01DX009 (ip); vehicle: saline with Tween-80; higher = longer survival
Inconclusive results and toxic doses are left out.
result_type: T/C

Nc1ccc2ccc(NS(=O)(=O)N3CCCCC3)cc2c1: 111 % of control
CCC(C)c1cnc(CC(C)C)c(=O)n1O (configuration not stated): 87 % of control
Sc1ccccc1-n1c(-c2ccccc2)ccc1-c1ccccc1: 87 % of control
Nc1nc(Cl)c2ncn(C3OC(CO)C(O)C3O)c2n1 (configuration not stated): 98 % of control
Nc1ccc2cc(S(=O)(=O)O)cc(O)c2c1N=Nc1ccc(F)cc1: 90 % of control
CCN(CC)CC(=O)c1ccc(O)c(O)c1: 92 % of control
O=S(=O)(CCl)OCCCl: 110 % of control

----------
T/C values by entry
System: B6C3F1 mice, B16 melanoma ip, median survival T/C
Test: NCI In Vivo Anticancer Drug Screen. Data for tumor model B16 Melanoma (intraperitoneal) in B6C3F1 mice
Conditions: endpoint: median survival time; dose: 3.12 mg/kg/injection; schedule: Q01DX009 (ip); vehicle: suspension in saline; higher = longer survival
Method: The antitumor activity of compounds was measured in mice bearing transplantable tumors. Survival or tumor size were measured and the results are expressed as the measurement made in the treated group (T) divided by the measurement made in the vehicle treated control group (C). The tumor model used in this assay is B16 Melanoma (intraperitoneal) in B6C3F1 mice
Inconclusive results and toxic doses are left out.
result_type: T/C

Cn1cnc([N+](=O)[O-])c1Sc1nc(N)nc2c1ncn2C1OC(CO)C(O)C1O (centres undefined): 116 % of control
NNC(=S)N/N=C/c1ccccn1: 113 % of control
c1cc(-c2cc3ccc(C4=NCCN4)cc3[nH]2)ccc1C1=NCCN1: 104 % of control
CCCCOc1ccc(C(=O)SCCCN=C(N)N)cc1: 92 % of control

----------
System: B6C3F1 mice, B16 melanoma ip, median survival T/C
Assay: NCI In Vivo Anticancer Drug Screen. Data for tumor model B16 Melanoma (intraperitoneal) in B6C3F1 mice
Settings: endpoint: median survival time; dose: 1.56 mg/kg/injection; schedule: Q01DX009 (ip); vehicle: water
Toxic doses and inconclusive results are not listed. How the source made its calls: active means survival T/C of 150% or more; inactive means T/C below 125% in these data.
Classes used: y (active), n (inactive)

NC(=O)/C=C/c1c[nH]c2nccnc12: n
O=C(O)C1CC1.[Ag]: n
O=NNc1ccc(Cl)cn1: n
CCN(CC)CCn1[nH]c2c3ccc(=O)cc3sc3c(NCCN)ccc1c32: y

----------
System: B6C3F1 mice, B16 melanoma ip, median survival T/C
Assay: NCI In Vivo Anticancer Drug Screen. Data for tumor model B16 Melanoma (intraperitoneal) in B6C3F1 mice
Conditions: endpoint: median survival time; dose: 6.25 mg/kg/injection; schedule: Q01DX009 (ip); vehicle: saline with Tween-80; higher = longer survival
Inconclusive results and toxic doses are left out.
T/C values by entry
result_type: T/C

C/C=C/c1cc2c(c(=O)o1)C(=O)[C@@H](O)[C@H](C)O2: 98 % of control
CC1=C(C)C(=O)O[C@@H]([C@](C)(O)[C@]2(O)CC[C@@]3(O)[C@@H]4C[C@H]5O[C@]56CC=CC(=O)[C@]6(C)[C@H]4CC[C@]23C)C1: 120 % of control
N#CC(=C1C=CC(=NO)C=C1)c1ccc(Cl)cc1: 101 % of control
COC1=CCC23C(=O)C=CC(=O)C2(C1)C(=O)c1ccccc1C3=O (stereo not drawn): 93 % of control
Cn1c(N)c(N=Nc2ccccc2Cl)c(=O)n(C)c1=O: 92 % of control
C/C(=N/NC(N)=S)c1ccc2ccccc2c1: 106 % of control
O=C(Nc1ccc(Cl)c(Cl)c1)Nc1c(Oc2ccc(Cl)c(Cl)c2)ccc(Cl)c1S(=O)(=O)O: 99 % of control
[I][Hg][CH2]C1COC([CH2][Hg][I])CO1 (stereo not drawn): 109 % of control
ClC1=C(Cl)C(Cl)=C(Cl)C1=Cc1ccccc1: 98 % of control
CS(=O)(=O)CS(=O)(=O)OCCCl: 114 % of control
Cn1c2c(c3ccccc3c1=O)C(=O)c1ccccc1-2: 105 % of control
C/C(=N\NC(N)=O)c1cccc(/C(C)=N/NC(N)=O)n1: 93 % of control
Cc1cc(Cc2cc(C)c(C)c(C)c2C)c(C)c(C)c1C: 106 % of control
